# target.of.assay: Nucleotide-binding oligomerization domain-containing protein 1 (Homo sapiens)
# assay.overview: Inhibition of human NOD1 over-expressed in HEK-Blue cells assessed as inhibition of […] NF-kappaB transcriptional activity measured as residual activity at 25 uM preincubated for 1 hr followed by addition of C12-iE-DAP measured after 18 hrs by SEAP reporter gene assay relative to control
# Format: cell-based
Calls of active or inactive are those of the source. The rule behind the calls is not given here.

chem.smiles	Activity
CCOC(=O)c1cc2ccccc2n1S(=O)(=O)c1ccc(Cl)cc1	30%
N=C1Cc2ccccc2N1Cc1ccc(C(F)(F)F)cc1	inactive
CC(C)c1ccc(CN2C(=N)Cc3ccccc32)cc1	inactive
Cc1ccc(S(=O)(=O)n2c(N)nc3ccccc32)cc1	9%
CCOC(=O)c1cc2ccccc2n1Cc1ccccc1	58%
Cc1ccc(CN2C(=N)Cc3ccccc32)cc1	inactive
CCOC(=O)c1cc2ccccc2n1S(=O)(=O)c1ccc(F)cc1	24%
CCOC(=O)c1cc2ccccc2n1Cc1ccc(Br)cc1	45%
CCOC(=O)c1cc2ccccc2n1S(=O)(=O)c1ccc(OC)cc1	36%
Cc1ccc(S(=O)(=O)n2c(C(N)=O)cc3ccccc32)cc1	76%
N=C1Cc2ccccc2N1Cc1ccc(Br)cc1	inactive
CCOC(=O)c1cc2ccccc2n1Cc1ccc(C)cc1	24%
CCOC(=O)c1cc2ccccc2n1S(=O)(=O)c1ccc(C(F)(F)F)cc1	37%
N=C1Cc2ccccc2N1Cc1ccc(C2CC2)cc1	inactive
Cc1ccc(S(=O)(=O)n2c(C(=O)NN)cc3ccccc32)cc1	68%
N=C1Cc2ccccc2N1Cc1ccccc1	72%
CCOC(=O)c1cc2ccccc2n1S(=O)(=O)c1ccc(C)cc1	24%
CCOC(=O)c1cc2ccccc2n1Cc1ccc(Cl)cc1	29%
CCOC(=O)c1cc2ccccc2n1S(=O)(=O)c1ccc([N+](=O)[O-])cc1	27%
CCOC(=O)c1cc2ccccc2n1Cc1ccc(F)cc1	53%
CCOC(=O)c1cc2ccccc2n1Cc1ccc(C(F)(F)F)cc1	46%
N=C1Cc2ccccc2N1Cc1ccc(Cl)cc1	44%
CCOC(=O)c1cc2ccccc2n1Cc1ccc(C2CC2)cc1	39%
CCOC(=O)c1cc2ccccc2n1Cc1ccc(C(C)C)cc1	42%
